# protocol: Pharmacokinetics and absolute bioavailability of five compounds after oral and i.v. administration (UHPLC-MS/MS)
# Format: in vivo
# condition_details: SD, in vivo, iv; rat, i.v. administration; A5 0.74, A6 1.16, DSS 1.60, TFSA 5.00, TMCA 0.31 mg/kg; n = 6
reported_property: Cmax (ng/mL)
State just the number; it will be interpreted in ng/mL.

In: In one line, give reported Cmax of the entry COc1cc(C=CC(=O)O)cc(OC)c1OC .
Out: 1470

----------
# protocol: Pharmacokinetics and absolute bioavailability of five compounds after oral and i.v. administration (UHPLC-MS/MS)
# Format: in vivo
# condition_details: SD, in vivo; rat, oral administration of pure compound; A5 7.40, A6 11.60, DSS 16.00, TFSA 50.00, TMCA 3.11 mg/kg; n = 6; read-out: t1/2 (converted)
reported_property: half-life
Field: value (include unit after the number)

In: Name the recorded half-life of the item COc1cc(C=CC(=O)O)cc(OC)c1OC in your answer.
Out: 39 min

----------
# protocol: Pharmacokinetics of five components in rat plasma after oral administration of RPT, LPT and HPT extracts (UHPLC-MS/MS)
# condition_details: male, SD, in vivo, 1.9 g/kg, rat plasma, oral LPT extract equivalent to 1.9 g/kg of RPT extract, mean ± SD, n = 6, read-out: Cmax
# Procedure: A Thermo Hypersil Gold C18 column (3.0 × 100 mm, i.d.; 3 μm) was used for chromatographic separation. An aqueous 10 mM ammonium acetate solution (A) and acetonitrile (B) were selected as the mobile phase components. […] Male SD rats were randomly divided into four groups (n = 6 in each group), including the RPT group, LPT group, HPT group and control group. […] The separated supernatant samples were preserved at −80 °C until they were measured. […]
reported_property: Cmax (ng/mL)
Answer in ng/mL, number only, no unit symbol.

In: Complete the entry with Cmax for COc1cc(C=CC(=O)O)cc(OC)c1OC
Out: 80.7

----------
# protocol: Stability of the five analytes in rat plasma
# Format: in vitro ADME
# condition_details: rat, 4 weeks, 2 ng/mL
reported_property: Long-term stability, Mean (%)
Write the value in % as a bare number.

Record excerpt, results attached:
molecule	Long-term stability, Mean [%]
COc1cc(C=CC(=O)OC2C(O)C(CO)OC2(CO)OC2OC(CO)C(O)C(O)C2O)cc(OC)c1O (stereo not shown)	93.5
COc1cc(C=CC(=O)OCC2OC(OC3(CO)OC(CO)C(O)C3OC(=O)C=Cc3cc(OC)c(O)c(OC)c3)C(O)C(O)C2O)cc(OC)c1O (stereo not shown)	95.3
COc1cc(/C=C/C(=O)O[C@H]2[C@H](O)[C@@H](CO)O[C@@]2(CO)O[C@H]2O[C@H](COC(=O)c3ccc(O)cc3)[C@@H](O)[C@H](O)[C@H]2O)cc(OC)c1OC [TFSA, tenuifoliside A]	89.9

Now for the molecule whose Long-term stability, Mean we want.
In: Return Long-term stability, Mean for the following molecule: COc1cc(/C=C/C(=O)O[C@H]2[C@H](O)[C@@H](CO)O[C@@]2(CO)O[C@H]2O[C@H](CO)[C@@H](O)[C@H](O)[C@H]2O)ccc1O
Out: 88.6

----------
# protocol: Pharmacokinetics and absolute bioavailability of five compounds after oral and i.v. administration (UHPLC-MS/MS)
# Type: in vivo
# condition_details: SD, in vivo; rat, oral administration of pure compound; A5 7.40, A6 11.60, DSS 16.00, TFSA 50.00, TMCA 3.11 mg/kg; n = 6
# Procedure: A Thermo Hypersil Gold C18 column (3.0 × 100 mm, i.d.; 3 μm) was used for chromatographic separation. An aqueous 10 mM ammonium acetate solution (A) and acetonitrile (B) were selected as the mobile phase components. […] The elementary pharmacokinetic parameters of plasma samples were analyzed by DAS 2.0 pharmacokinetic software. […]
reported_property: AUC(0-inf) (ng·h/mL)
Lab book: enter the figure in ng·h/mL, no units written.

In: Consider the compound COc1cc(C=CC(=O)O)cc(OC)c1OC [TMCA, 3,4,5-trimethoxycinnamic acid] and give its recorded AUC(0-inf).
Out: 971
